Measured IC50 accompanies every entry in the list below.
# experimental-target: human full length PKCE enzyme (Homo sapiens, UniProt Q02156)
# Sequence (Q02156 1-737): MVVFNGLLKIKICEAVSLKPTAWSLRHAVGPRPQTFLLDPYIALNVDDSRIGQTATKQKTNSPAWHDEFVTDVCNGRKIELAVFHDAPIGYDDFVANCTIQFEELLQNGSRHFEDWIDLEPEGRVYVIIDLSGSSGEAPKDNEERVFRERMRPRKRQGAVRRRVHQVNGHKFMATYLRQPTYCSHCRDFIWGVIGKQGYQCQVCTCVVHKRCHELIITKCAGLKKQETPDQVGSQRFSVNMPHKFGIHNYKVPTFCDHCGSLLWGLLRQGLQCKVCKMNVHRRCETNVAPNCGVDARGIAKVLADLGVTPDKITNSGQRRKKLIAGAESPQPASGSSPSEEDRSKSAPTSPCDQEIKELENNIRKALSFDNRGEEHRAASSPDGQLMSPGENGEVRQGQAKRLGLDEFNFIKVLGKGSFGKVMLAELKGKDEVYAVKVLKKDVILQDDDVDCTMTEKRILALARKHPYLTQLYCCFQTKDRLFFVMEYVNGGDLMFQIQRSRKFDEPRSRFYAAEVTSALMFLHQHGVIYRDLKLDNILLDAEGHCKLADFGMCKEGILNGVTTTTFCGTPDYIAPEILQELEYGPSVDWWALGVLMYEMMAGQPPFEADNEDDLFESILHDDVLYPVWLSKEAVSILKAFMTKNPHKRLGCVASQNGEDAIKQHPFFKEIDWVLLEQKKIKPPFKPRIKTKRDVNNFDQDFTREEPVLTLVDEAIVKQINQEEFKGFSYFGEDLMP

1. Nc1nc(N)c(C(=O)Nc2[nH]c(=O)ncc2N2CCC(C(F)(F)F)CC2)nc1Cl [Example 159]; > 25000 nM
2. NCC1CCCN(c2ccncc2NC(=O)c2nccnc2N)C1 (stereo not drawn) [Example 184]; < 1000 nM

// moving on: another record for IC50
The compound listed as NC(=O)c1cccc(-c2cnc(N)c(C(=O)Nc3cnccc3N3CCNCC3)n2)c1 [Example 361] shows IC50 equal to < 1000 nM

* * *

# experimental-target: Pim2 kinase (Homo sapiens, UniProt Q9P1W9)
# Sequence (Q9P1W9 whole entry): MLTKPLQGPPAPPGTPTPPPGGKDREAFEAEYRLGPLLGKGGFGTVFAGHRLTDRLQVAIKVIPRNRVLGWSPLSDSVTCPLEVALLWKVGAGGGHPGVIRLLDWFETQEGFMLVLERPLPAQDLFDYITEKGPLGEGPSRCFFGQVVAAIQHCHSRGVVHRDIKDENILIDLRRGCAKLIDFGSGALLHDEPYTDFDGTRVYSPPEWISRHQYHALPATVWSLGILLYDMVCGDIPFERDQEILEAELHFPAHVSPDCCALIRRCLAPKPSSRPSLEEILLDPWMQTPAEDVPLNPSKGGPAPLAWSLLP
# assay-remarks: Pim2 ATP depletion assay
# Format: biochemical
# run-conditions: read-out: IC50 (μM) PIM2
IC50 values, listed per item

Take a look at these entries with their results.
1) Cc1ccc(N2CCCC(N)C2)c(NC(=O)c2nccnc2N)c1 (centres unmarked); 10 to 25 µM
2) COc1nc(N)ncc1-c1ccc(N)c(C(=O)Nc2cnccc2N2CCC[C@H](N)C2)n1; < 1 µM
3) N[C@H]1CCCN(c2ccncc2NC(=O)c2cccc(-c3ccccc3F)n2)C1; < 1 µM
4) Nc1ccc(-c2c(F)cccc2F)nc1C(=O)Nc1cnccc1N1CCCOCC1; < 1 µM
5) Nc1ncc(-c2ccccc2)nc1C(=O)Nc1ccccc1N1CCCC(N)C1 (centres unmarked); < 1 µM
6) CC(C)NC(=O)c1ccc(F)c(-c2ccc(N)c(C(=O)Nc3cnccc3N3CCC[C@H](N)C3)n2)c1; < 1 µM
7) Nc1ncc(-c2ccccc2F)nc1C(=O)Nc1ccccc1N1CCNCC1; 1 to 10 µM
8) Cc1cc(F)c(-c2ccc(N)c(C(=O)Nc3cnccc3N3CCC[C@H](N)C3)n2)cc1Cl; < 1 µM
9) Nc1nccnc1C(=O)Nc1cc(Cl)ccc1N1CCNCC1; > 25 µM
10) Nc1nccnc1C(=O)Nc1cc(C(=O)c2ccccc2)ccc1N1CCNCC1; > 25 µM

Pending molecule:
Value (IC50, Pim2 kinase (Homo sapiens, UniProt Q9P1W9)) for record `Cc1nc(N)ncc1-c1ccc(N)c(C(=O)Nc2cnccc2N2CCC[C@H](N)C2)n1` = < 1 µM

* * *

# experimental-target: Pim2 kinase (Homo sapiens, UniProt Q9P1W9)
# assay-remarks: Pim2 ATP depletion assay
# Type: biochemical
# run-conditions: read-out: IC50 (μM) PIM2
parameter-measured: IC50

Some entries whose results are on file:
1) NCC1CCCN(c2ccncc2NC(=O)c2nc(Cl)c(N)nc2N)C1 (stereo not drawn); < 1 µM
2) CC(C)NC(=O)c1ccc(F)c(-c2ccc(N)c(C(=O)Nc3cnccc3N3CCCC4(CCNC4)C3)n2)c1 (stereo not drawn); < 1 µM
3) Nc1ncc(-c2ccccc2F)nc1C(=O)Nc1cc(C(=O)c2ccccc2)ccc1N1CCC(N)CC1; > 25 µM
4) Cc1ccccc1-c1nc(C(=O)Nc2cnccc2N2CCCC(N)C2)c(N)nc1N (stereo not drawn); < 1 µM
5) NC(=O)c1cccc(-c2cnc(N)c(C(=O)Nc3ccccc3N3CCNCC3)n2)c1; 1 to 10 µM
6) Nc1nccnc1C(=O)Nc1cnccc1N1CCC[C@@H](N)C1; < 1 µM
7) Nc1nccnc1C(=O)Nc1cnccc1N1CCCCC1; 1 to 10 µM
8) NCC(=O)N1CCN(c2ccncc2NC(=O)c2nc(Cl)c(N)nc2N)CC1; < 1 µM

Note: attention shifts to another entry.
Summary for this compound, `Nc1ncc(-c2ccccc2)nc1C(=O)Nc1ccccc1N1CCNCC1` : IC50 is 1 to 10 µM

* * *

# experimental-target: Pim2 kinase (Homo sapiens)
# assay-remarks: Pim2 ATP depletion assay
# Assay type: biochemical
# run-conditions: read-out: IC50 (μM) PIM2
Listed next: entries and their corresponding IC50.

// known answers, use as guide
1) Nc1ccc(-c2cccc(C(F)(F)F)c2)nc1C(=O)Nc1cnccc1N1CCC[C@H](N)C1 [Example 460]; < 1 µM
2) Cc1ccc(NC(=O)c2nccnc2N)c(N2CCCC(N)C2)c1 (centres unmarked) [Example 229]; 1 to 10 µM
3) Nc1ccc(-c2ccc(F)nc2N)nc1C(=O)Nc1cnccc1N1CCC[C@H](N)C1 [Example 408]; < 1 µM
4) Nc1ncc(Br)nc1C(=O)Nc1[nH]c(=O)ncc1N1CCC(F)CC1 [Example 150]; < 1 µM
5) CCc1cccc(-c2ccc(N)c(C(=O)Nc3cnccc3N3CCC[C@H](N)C3)n2)c1 [Example 452]; < 1 µM
6) Nc1ccc(-c2c(F)cccc2F)nc1C(=O)Nc1cnccc1N1CC[C@H](F)[C@@H](N)C1 [Example 276]; < 1 µM

// IC50 value for CC(C)NC(=O)c1ccc(F)c(-c2ccc(N)c(C(=O)Nc3cnccc3N3CCCC(O)(C(F)(F)F)C3)n2)c1 (centres unmarked) [Example 163] : < 1 µM

Sample Nc1nccnc1C(=O)Nc1[nH]c(=O)ncc1N1CCC(F)(F)CC1 [Example 156] ; IC50 observed: < 1 µM

# IC50 (compound: NCC1CCCN(c2cnc(=O)[nH]c2NC(=O)c2nc(Cl)c(N)nc2N)C1 (centres unmarked) [Example 236] ) is < 1 µM

Input NCCC(=O)N1CCN(c2cnc(=O)[nH]c2NC(=O)c2nccnc2N)CC1 [Example 237] . Output IC50: < 1 µM

The measured IC50 associated with Nc1nccnc1C(=O)Nc1cc(-c2ccn[nH]2)ccc1N1CCC(N)CC1 [Example 207] reads 10 to 25 µM

For reference, reported IC50 for Nc1nccnc1C(=O)Nc1ccc(F)cc1N1CCC(N)CC1 [Example 210] stands at 1 to 10 µM

* * *

Parameter IC50: see the listing below.
# experimental-target: Pim1 kinase (Homo sapiens, UniProt P11309)
# Sequence (P11309 whole entry): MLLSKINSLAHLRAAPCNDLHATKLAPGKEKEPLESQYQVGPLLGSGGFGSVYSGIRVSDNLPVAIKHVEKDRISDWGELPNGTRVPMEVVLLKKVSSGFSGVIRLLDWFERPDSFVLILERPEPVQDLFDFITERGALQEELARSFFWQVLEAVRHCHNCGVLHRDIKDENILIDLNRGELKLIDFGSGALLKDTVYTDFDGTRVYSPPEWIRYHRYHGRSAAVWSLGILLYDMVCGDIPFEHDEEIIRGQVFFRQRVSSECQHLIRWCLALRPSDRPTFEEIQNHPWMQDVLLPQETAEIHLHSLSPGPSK
# assay-remarks: Pim1 ATP depletion assay
# Type: biochemical
# run-conditions: Pim1 ATP depletion assay; read-out: IC50 (μM) PIM1

Example entries and their recorded answers appear below.
1. CNC(=O)c1ccc(F)c(-c2ccc(N)c(C(=O)Nc3cnccc3N3CCC[C@H](N)C3)n2)c1; < 1 µM
2. Nc1ncc(-c2ccc(O)cc2)nc1C(=O)Nc1cnccc1N1CCCC(N)C1 (stereo not drawn); < 1 µM
3. Nc1nc(N)c(C(=O)Nc2[nH]c(=O)ncc2N2CCC(F)(F)CC2)nc1Cl; < 1 µM
4. COc1ccc(-c2cnc(N)c(C(=O)Nc3cc(C(=O)c4ccccc4)ccc3N3CCNCC3)n2)cc1; 1 to 10 µM
5. NC(=O)c1cccc(-c2cnc(N)c(C(=O)Nc3ccccc3N3CCC(N)CC3)n2)c1; < 1 µM

Entry `Cc1nc(N)cc(-c2ccncc2NC(=O)c2nc(-c3c(F)cccc3F)ccc2N)n1` ; IC50 = < 1 µM

* * *

# experimental-target: Pim3 kinase (Homo sapiens, UniProt Q86V86)
# assay-remarks: Pim3 ATP depletion assay
# Type: biochemical
# run-conditions: read-out: IC50 (μM) PIM3
This listing pairs molecules with measured IC50.

1) Nc1nccnc1C(=O)Nc1cnccc1N1CCNCC1; 1 to 10 µM

Now consider the entry below.
Recorded IC50 for `NCC(=O)N1CCN(c2ccncc2NC(=O)c2nc(-c3ccccc3F)ccc2N)CC1` on Pim3 kinase (Homo sapiens, UniProt Q86V86) was < 1 µM

* * *

# experimental-target: Pim2 kinase (Homo sapiens, UniProt Q9P1W9)
# assay-remarks: Pim2 ATP depletion assay;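 note: Luciferase-based luminescent readout of ATP remaining after PIM2 phosphorylates a BAD peptide, final 5 nM enzyme, 4 µM ATP, 10 µM peptide, 2.5% DMSO, run to roughly half ATP consumption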
# Type: biochemical
# run-conditions: read-out: PIM2 IC50
parameter-measured: IC50

Some entries whose results are on file:
1) COc1nc(-c2ccc(N)c(C(=O)Nc3cnccc3N3CCC[C@H](N)C3)n2)cnc1N [Example 731]; < 1000 nM
2) Cc1cc(-c2ccncc2NC(=O)c2nc(-c3ccccc3F)ccc2N)nc(N)n1 [Example 626]; < 1000 nM
3) N[C@H]1CCCN(c2ccncc2NC(=O)c2nc(-c3ccccc3)ccc2F)C1 [Example 568]; < 1000 nM

Measured IC50 of N[C@H]1CCCN(c2ccncc2NC(=O)c2cccc(C3CCCCC3)n2)C1 [Example 635] : < 1000 nM

Record CC(C)NC(=O)c1ccc(F)c(-c2ccc(N)c(C(=O)Nc3cnccc3N3CCCC(C)(N)C3)n2)c1 (stereo not drawn) [Example 675] , field IC50: < 1000 nM

The measured IC50 associated with COc1cncc(-c2ccc(N)c(C(=O)Nc3cnccc3N3CCC[C@H](N)C3)n2)n1 [Example 722] reads < 1000 nM

The compound identified as Nc1ccc(-c2ccc(F)cn2)nc1C(=O)Nc1cnccc1N1CCC[C@H](N)C1 [Example 727] registered its IC50 at < 1000 nM

So for CC(C)NC(=O)c1ccc(F)c(-c2ccc(N)c(C(=O)Nc3cnccc3N3C[C@@H](N)C[C@@H](O)C3)n2)c1 [Example 677] , the logged IC50 turned out to be < 1000 nM
